Tested on: alkaline phosphatase, intestinal [Bos taurus]
Test: bovine intestinal alkaline phosphatase inhibitors, primary screen, selectivity assay for TNAP inhibitor project, biochemical, bovine IAP, CDP-star luminescence (AID 1019)
Details: purified bovine IAP, 30 min, at 20 µM, stronger effect = higher value
Fewer than 10 of roughly 190,000 compounds were called active. The list is a sample of the results.
MEASURED METRIC: inhibition (%)

compound=Cc1cc(/C=C2/SC(=O)N(CC(=O)N3CCCC3)C2=O)ccc1N1CCOCC1 measured_metric=inhibition recorded_measurement=2.3
compound=O=C(Nc1ccc([N+](=O)[O-])cc1)C1(c2ccccc2)CCOCC1 measured_metric=inhibition recorded_measurement=9.9
compound="Cc1cccc(CN2CCN(Cc3cnn(-c4ccccc4F)c3)CC2CCO)n1 (stereo not given)" measured_metric=inhibition recorded_measurement=-15.4
compound=CC(=O)c1ccc(N=C2SCCCN2C(=O)C2CCCCC2)cc1 measured_metric=inhibition recorded_measurement=24.2
compound=CN(C)CCN=c1cc(-c2ccccc2)oc2ccc(Cl)cc12 measured_metric=inhibition recorded_measurement=-8.9
compound=CC(C)(C)NC(=O)c1ccc(Cn2cc(C(F)(F)F)ccc2=O)cc1 measured_metric=inhibition recorded_measurement=4.3
compound=CCOc1c(CNCc2ccc(C(=O)O)cc2)cccc1OC measured_metric=inhibition recorded_measurement=-5.7
compound=COC(=O)c1nc(NC(=O)c2ccc(F)cc2)n[nH]1 measured_metric=inhibition recorded_measurement=8.8
compound=CCN(CC)S(=O)(=O)c1cc([N+](=O)[O-])ccc1N=Nc1c(O)n(C)c2ccccc12 measured_metric=inhibition recorded_measurement=-5.1
compound=CCN(CC)c1ccc(C(=O)c2cnc(/N=C/N(C)C)s2)cc1 measured_metric=inhibition recorded_measurement=11.8
compound=CN1C(=O)/C(=C/c2ccco2)SC1=Nc1cccc(C(=O)O)c1 measured_metric=inhibition recorded_measurement=-5.3
compound="O=C(NN1C(=O)C2C3C=CC(O3)C2C1=O)c1ccccc1 (stereo not given)" measured_metric=inhibition recorded_measurement=-0.3
compound=CCCCCCCNc1nc(Cl)nc(NCCO)n1 measured_metric=inhibition recorded_measurement=-10.7
compound=CCN(CC(=O)Nc1ccc(Cl)c(S(=O)(=O)N(C)C)c1)Cc1nc2ccccc2c(=O)[nH]1 measured_metric=inhibition recorded_measurement=-108
compound=CCOC(=O)C1(Cc2ccccc2C(F)(F)F)CCN(C(=O)c2cc(C)n(C)n2)CC1 measured_metric=inhibition recorded_measurement=-5.4
compound="COc1cccc(NC(=O)C(Sc2nnnn2C)c2ccccc2)c1 (stereo not given)" measured_metric=inhibition recorded_measurement=-2.3
compound=CC(=O)NCC(=O)N(Cc1ccco1)C1(C(=O)NC2CCCC2)CCCCC1 measured_metric=inhibition recorded_measurement=3.8
compound=N#C/C(=C\C1=C(N2CCOCC2)C(=C\c2ccccc2)/CC1)C(=O)Nc1ccccc1F measured_metric=inhibition recorded_measurement=5.9
compound=Cc1ccc(NC(=O)c2cccnc2C(=O)Nc2ccc(C)cc2)cc1 measured_metric=inhibition recorded_measurement=-4.3
compound=O=C(COC(=O)CCCNC(=O)c1ccc(Cl)cc1)Nc1cc(Cl)ccc1Cl measured_metric=inhibition recorded_measurement=33.8
compound="CC(NCc1nc2ccccc2n1C)C12CC3CC(CC(C3)C1)C2 (stereo not given)" measured_metric=inhibition recorded_measurement=1
compound=CC(=O)Nc1ccc(C(=O)OCC(=O)Nc2ccc([N+](=O)[O-])cc2C(F)(F)F)cc1 measured_metric=inhibition recorded_measurement=34.7
compound=COc1ccccc1NC(=O)CCSc1nnc(-c2ccc(O)cc2)o1 measured_metric=inhibition recorded_measurement=3.5
compound=CC1(C)CC(=O)c2cnc3nc4ccccc4n3c2C1 measured_metric=inhibition recorded_measurement=7.1
compound=CCCC(=O)OCC(=O)Nc1cc(Cl)ccc1[N+](=O)[O-] measured_metric=inhibition recorded_measurement=12.7

Data provenance: PubChem BioAssay AID1019
